B1: library; a variant is named by its letters at X, in order (parent)
chain: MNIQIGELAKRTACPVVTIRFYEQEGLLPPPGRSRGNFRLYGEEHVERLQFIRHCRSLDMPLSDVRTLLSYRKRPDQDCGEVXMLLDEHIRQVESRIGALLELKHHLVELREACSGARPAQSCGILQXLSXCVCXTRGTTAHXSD

variants of: B1; experiment: sfGFP reporter fluorescence (15 h) (µM FITC); higher = higher leak; conditions: library round: Round 2; ligand: none
Entry flag: t if sfGFP reporter fluorescence reaches 0.06; f if it does not.

- TGDDY V82I L129I: f
- THDDW: f
- NIDDP D64K V108E: t
- TGCDI: f
- NGDAR E112I: f
- NGTAT: f
- NMDDP K104V L107S: t
- SADAP: t
- NGSRP L126I: f
- TGDDP I97A K104G: t
